Assay: chemical genetic growth profiling, strain panel (AID 1159580);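 note: tested at 20 µM; growth read once vehicle control cultures reached saturation at 30 °C; lower values mean less growth of the strain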
Settings: S. cerevisiae deletion strains, growth OD, locus YGL086W, strain mad1
Hit rate of the full screen: of about 5,500 compounds, about 2,000 (36%) were called active. Another 18% or so got no clear call; they are omitted. Cut-off read from the data, not from the text of the source: active = normalized growth mostly below about 0.91 (no sharp cut-off); inconclusive = no clear call, values can overlap the other calls; inactive = mostly above about 0.92. Some of the results follow.
Would you mind answering with one of these outcomes? active, inactive

Q. Which outcome was assigned to CC(=O)O[C@H]1CC[C@@]2(C)C(CC[C@]3(C)C2CC=C2C4CC(C)(C)CC[C@]4(C)CC[C@]23C)C1(C)C (stereo not given in full) in this test?
A. inactive

Q. // next record Nc1c2c(nc3ccccc13)CCCC2
A. inactive

Q. // next record Nc1ccc(S(=O)(=O)Nc2cnc3ccccc3n2)cc1
A. inactive

Q. // next record NCCC(=O)N[C@@H](Cc1cnc[nH]1)C(=O)O
A. inactive

Q. // next record Nc1c2ccccc2nc2ccccc12
A. active

Q. // next record Nc1ccc(S(=O)(=O)Nc2ccnn2-c2ccccc2)cc1
A. inactive

Q. // next record Cc1ccnc(NS(=O)(=O)c2ccc(N)cc2)n1
A. inactive

Q. // next record COc1c(CC(=O)c2cc3c(cc2O)OC(C)(C)C(O)C3)ccc2c1C=CC(C)(C)O2 (stereo not given)
A. inactive

Q. // next record CCC(C)C(=O)O[C@H]1[C@H](O)C2C(CN3CC(C)CCC3[C@@]2(C)O)C2C[C@]34O[C@]5(O)C(OC(=O)C(C)(O)CC)CC[C@@]3(C)C5C(OC(C)=O)[C@@H](OC(C)=O)C4[C@@]21O (stereo not given in full)
A. inactive

Q. // next record CC(=O)O[C@H]1CC[C@@]2(C)C(CC[C@]3(C)C2C(=O)C=C2C4[C@@H](C)[C@H](C)CC[C@]4(C(=O)O)CC[C@]23C)C1(C)C (stereo not given in full)
A. inactive

Q. // next record Cc1cc(C(C)(C)C)c(O)c(C(C)(C)C)c1
A. inactive

Q. // next record CC(C)(Sc1cc(C(C)(C)C)c(O)c(C(C)(C)C)c1)Sc1cc(C(C)(C)C)c(O)c(C(C)(C)C)c1
A. active

Q. // next record NNc1nncc2ccccc12
A. inactive

Q. // next record Nc1c2ccccc2nc2ccccc12 (tested in a mixture with another compound)
A. active

Q. // next record COc1ccc2c3c([nH]c2c1)C(C)=NCC3
A. inactive

Q. // next record NNC(=O)c1ccncc1
A. inactive

Q. // next record Nc1c2c(nc3ccccc13)CCCC2O (stereo not given)
A. inactive

Q. // next record COc1ccc2c(c1)c(CC(=O)O)c(C)n2C(=O)c1ccc(Cl)cc1
A. inactive

Q. // next record CC(=O)OC1CC[C@@]2(C)C(CC[C@]3(C)C2CCC2C4CC(C)(C)CCC4(C(=O)O)CC[C@]23C)C1(C)C (stereo not given in full)
A. inactive

Q. // next record CC1(C)CC[C@]2(C(=O)O)CC[C@]3(C)C(=CCC4[C@@]5(C)CC[C@H](O)[C@@](C)(CO)C5CC[C@]43C)C2C1 (stereo not given in full)
A. active
